# subject.of.test: VASP-EVH1 (Homo sapiens, UniProt P50552)
# Construct: VASP-EVH-1, EnaH-EVH-1 and EVL-EVH-1 domain
# Sequence (P50552 2-113 limits assumed): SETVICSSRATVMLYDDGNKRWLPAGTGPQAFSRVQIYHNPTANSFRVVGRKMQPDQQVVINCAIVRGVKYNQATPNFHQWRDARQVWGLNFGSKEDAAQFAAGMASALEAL
# assay.method.text: Binding affinity by FT, VASP-EVH1
For each entry below, report its Kd value.
Report the value in µM with no unit label.

Please tell me: Kd of CCOC(=O)[C@@H]1C[C@@H](CC)[C@@H]2C=C[C@H]3CCN(C(=O)[C@@H]4CC[C@H]5C=C[C@]6(CCCN6C(=O)[C@H](Cc6ccccc6Cl)NC(C)=O)C(=O)N54)[C@@H]3C(=O)N12 [Ac[2-Cl—F][ProM-2][ProM-13]-OEt, Ac-Phe(2-CI)-[ProM-2][ProM-13]-OEt] , system VASP-EVH1 (Homo sapiens, UniProt P50552)?
0.4

Please tell me: Kd of CCOC(=O)C1CCC2C=CC3CCN(C(=O)C4CCC5C=CC6(CCCN6C(=O)C(Cc6ccccc6Cl)NC(C)=O)C(=O)N54)C3C(=O)N21 (centres unmarked) [Compound 4D, Ac-Phe(2-CI)-[ProM-2][ProM-1]-OEt] , system VASP-EVH1 (Homo sapiens, UniProt P50552)?
6.2

* * *

# subject.of.test: EnaH-EVH1 (Homo sapiens, UniProt Q8N8S7)
# Construct: VASP-EVH-1, EnaH-EVH-1 and EVL-EVH-1 domain
# Sequence (Q8N8S7 1-111 limits assumed): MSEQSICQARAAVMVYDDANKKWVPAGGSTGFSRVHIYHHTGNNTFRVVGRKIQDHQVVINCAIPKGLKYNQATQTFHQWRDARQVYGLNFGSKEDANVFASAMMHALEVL
# assay.method.text: Binding affinity by FT, EnaH-EVH1
readout.name: Kd (µM)
Report the value in µM with no unit label.

Quick one: Kd for CCOC(=O)C1CCC2C=CC3CCN(C(=O)C4CCC5C=CC6(CCCN6C(=O)C(Cc6ccccc6Cl)NC(C)=O)C(=O)N54)C3C(=O)N21 (centres unmarked) [Compound 4D, Ac-Phe(2-CI)-[ProM-2][ProM-1]-OEt] ?
4.1

Quick one: Kd for CCOC(=O)[C@@H]1C[C@@H](CC)[C@@H]2C=C[C@H]3CCN(C(=O)[C@@H]4CC[C@H]5C=C[C@]6(CCCN6C(=O)[C@H](Cc6ccccc6Cl)NC(C)=O)C(=O)N54)[C@@H]3C(=O)N12 [Ac[2-Cl—F][ProM-2][ProM-13]-OEt, Ac-Phe(2-CI)-[ProM-2][ProM-13]-OEt] ?
0.18

* * *

# assay.method.text: in vitro
# particulars: mouse, mouse plasma
readout.name: fraction unbound
Enter the number alone.

Quick one: fraction unbound for CCOC(=O)C1CCC2C=CC3CCN(C(=O)C4CCC5C=CC6(CCCN6C(=O)C(Cc6ccccc6Cl)NC(C)=O)C(=O)N54)C3C(=O)N21 (stereo not shown) [Compound 4D, Ac-Phe(2-CI)-[ProM-2][ProM-1]-OEt] ?
0.981
